Catalogue of IC50 readings, one per entry.
- System: A375
- ASSAY: Growth inhibition assay, PA alone, A375
- Format: cell-based
- SETTINGS: Homo sapiens, A-375, 144 h, PA alone (no DFMO), six days; repeat determinations; read-out: Cell Line IC50 A375

{"MOLECULE": "CC(C)(C)CNCCCC[C@@H](N)C(=O)NCCCNCCCCNCCCN [IVB24]", "TARGET OR SYSTEM": "A375", "IC50": "> 100 µM"}
{"MOLECULE": "CC(C)CNCCCC[C@@H](N)C(=O)NCCCNCCCCNCCCN [IVB23]", "TARGET OR SYSTEM": "A375", "IC50": "> 100 µM"}
{"MOLECULE": "NCCCNCCCCNCCCNC(=O)[C@H](N)CCCCNC(=O)c1ccco1 [IB25]", "TARGET OR SYSTEM": "A375", "IC50": "> 30 µM"}
{"MOLECULE": "CCCCCCCCC(=O)NCCCC[C@@H](N)C(=O)NCCCNCCCCNCCCN [IB6]", "TARGET OR SYSTEM": "A375", "IC50": "> 30 µM"}
{"MOLECULE": "NCCCNCCCCNCCCNC(=O)[C@H](N)CCCCNC(=O)CC1CC2CCC1C2 (stereo partly drawn) [IB37]", "TARGET OR SYSTEM": "A375", "IC50": "19.8 µM"}
{"MOLECULE": "CCCCCC(=O)NCCCC[C@@H](N)C(=O)NCCCNCCCCNCCCN [IB9]", "TARGET OR SYSTEM": "A375", "IC50": "> 100 µM"}
{"MOLECULE": "CCCCCCCNCCCC[C@@H](N)C(=O)NCCCNCCCCNCCCN [IVB6]", "TARGET OR SYSTEM": "A375", "IC50": "> 100 µM"}
{"MOLECULE": "CC(C)(C)CCNCCCC[C@@H](N)C(=O)NCCCNCCCCNCCCN [IVB22]", "TARGET OR SYSTEM": "A375", "IC50": "> 100 µM"}
{"MOLECULE": "CCCCNCCCC[C@@H](N)C(=O)NCCCNCCCCNCCCN [IVB3]", "TARGET OR SYSTEM": "A375", "IC50": "> 100 µM"}
